test system: MS2 coat protein; test: apparent KD of MS2 coat protein; designed switch direction (-1 OFF switch, 1 ON switch): 1; higher = weaker reporter binding; conditions: input ligand: none
readout-label: apparent KD of MS2 coat protein (nM)
Provide only the numeric value, understood in nM.

INSERT INTO measurements (seq_text, result_units, value_measured) VALUES
  ('ACAUGAAAUUCAGGAUAUUUUGUACCUACAUGUGACAUGAGGAUCACCCAUGUGGUAAGUAUGAGAAAGAAGGGAAAGAUAUGU [Equivalence 10 - Jieux - Same State NG 2] (Eterna round: R96, puzzle: Same State NG 2)', 'nM', 45.6);

Retrieve apparent KD of MS2 coat protein measured for GGCGAACAGGCUAACAUGAGGAUCACCCAUGUGGACUCAUGUUAGGAUAUCGGGAAGGAGGAAACCGAGAAGGGACGGUGAGCU [AK SSNG3-V2-45] (Eterna round: R96, puzzle: Same State NG 3) and print it.
34.1
